assay: RP-HPLC determination of peptide hydrophobicity; format: physicochemical; conditions: RP-HPLC retention as measure of hydrophobicity; Waters X-Bridge Shield RP-18 3.0 × 100 mm, 3.5 μm; linear 20–65% acetonitrile in water over 30 min, 0.1% TFA, 0.5 mL/min, 25.0 °C, UV 214 nm; 1 g/L; triplicate
Where a SMILES comes first, the peptide text is derived from it. Bridges are numbered along the chain shown (N, C = ends). The star is where a group is joined. Palmitoyl = CCCCCCCCCCCCCCCC(=O)*
quantity-kind: reduced retention time t’R (min)
Write it as a number; the unit min goes unstated.

compound: CCCCCCCCCCCCCCCC(=O)N[C@@H](CCCNC(=N)N)C(=O)N[C@@H](CCCCN)C(=O)N[C@@H](CCCCN)C(=O)N[C@@H](CCCCN)C(N)=O [L3, C16-RKKK-NH2] (Palmitoyl-RKKK-NH2)
quantity-kind: reduced retention time t’R
recorded-value: 15.21

compound: CCCCCCCCCCCCCCCC(=O)N[C@H]1CSSC[C@@H](C(N)=O)NC(=O)[C@H](CCCCN)NC(=O)[C@H](CCCCN)NC(=O)[C@H](CCCCN)NC(=O)[C@H](CCCCN)NC1=O [C2, C16-CKKKKC-NH2] (Palmitoyl-CKKKKC-NH2; disulfide 1-6)
quantity-kind: reduced retention time t’R
recorded-value: 15.95

compound: CCCCCCCCCCCCCCCC(=O)N[C@@H](CCCNC(=N)N)C(=O)N[C@@H](CCCNC(=N)N)C(=O)N[C@@H](CCCCN)C(=O)N[C@@H](CCCCN)C(N)=O [L7, C16-RRKK-NH2] (Palmitoyl-RRKK-NH2)
quantity-kind: reduced retention time t’R
recorded-value: 15.58

CCCCCCCCCCCCCCCC(=O)N[C@H]1CSSC[C@@H](C(N)=O)NC(=O)[C@H](CCCCN)NC(=O)[C@H](CCCCN)NC(=O)[C@H](CCCNC(=N)N)NC(=O)[C@H](CCCNC(=N)N)NC1=O [C7, C16-CRRKKC-NH2] (Palmitoyl-CRRKKC-NH2; disulfide 1-6) yielded reduced retention time t’R of 16.83

`CCCCCCCCCCCCCCCC(=O)N[C@@H](CCCCN)C(=O)N[C@@H](CCCCN)C(=O)N[C@@H](CCCCN)C(N)=O` yielded reduced retention time t’R of 16.14

CCCCCCCCCCCCCCCC(=O)N[C@H]1CSSC[C@@H](C(N)=O)NC(=O)[C@H](CCCCN)NC(=O)[C@H](CCCCN)NC(=O)[C@H](CCCNC(=N)N)NC(=O)[C@H](CCCCN)NC1=O [C4, C16-CKRKKC-NH2] (Palmitoyl-CKRKKC-NH2; disulfide 1-6) yielded reduced retention time t’R of 16.10

---

test system: Candida tropicalis PCM 2709-FY; type: cell-based; conditions: PCM 2709-FY, 24 h
Where a SMILES comes first, the peptide text is derived from it. Bridges are numbered along the chain shown (N, C = ends). The star is where a group is joined. Palmitoyl = CCCCCCCCCCCCCCCC(=O)*
quantity-kind: MIC C. tropicalis (mg/L)
Write it as a number; the unit mg/L goes unstated.

compound: CCCCCCCCCCCCCCCC(=O)N[C@H]1CSSC[C@@H](C(N)=O)NC(=O)[C@H](CCCCN)NC(=O)[C@H](CCCCN)NC(=O)[C@H](CCCCN)NC1=O [C1, C16-CKKKC-NH2] (Palmitoyl-CKKKC-NH2; disulfide 1-5)
measurement-target: Candida tropicalis PCM 2709-FY
MIC C. tropicalis [mg/L]: 4
--
compound: CCCCCCCCCCCCCCCC(=O)N[C@H]1CSSC[C@@H](C(N)=O)NC(=O)[C@H](CCCCN)NC(=O)[C@H](CCCCN)NC(=O)[C@H](CCCNC(=N)N)NC(=O)[C@H](CCCNC(=N)N)NC1=O [C7, C16-CRRKKC-NH2] (Palmitoyl-CRRKKC-NH2; disulfide 1-6)
measurement-target: Candida tropicalis PCM 2709-FY
MIC C. tropicalis [mg/L]: 4
--
compound: CCCCCCCCCCCCCCCC(=O)N[C@@H](CCCCN)C(=O)N[C@@H](CCCCN)C(=O)N[C@@H](CCCNC(=N)N)C(=O)N[C@@H](CCCCN)C(N)=O [L5, C16-KKRK-NH2] (Palmitoyl-KKRK-NH2)
measurement-target: Candida tropicalis PCM 2709-FY
MIC C. tropicalis [mg/L]: 8

With those in mind, consider the next compound.
The value of MIC C. tropicalis recorded for CCCCCCCCCCCCCCCC(=O)N[C@@H](CCCCN)C(=O)N[C@@H](CCCCN)C(=O)N[C@@H](CCCCN)C(=O)N[C@@H](CCCCN)C(N)=O [L2, C16-KKKK-NH2] (Palmitoyl-KKKK-NH2) when tested on Candida tropicalis PCM 2709-FY reads 4

# credit: paper PMC7582905
